System: DU-145
EXPERIMENTAL DETAILS: NCI tumour cell line growth inhibition, 48 h
Active and inactive are the calls of the source. Cut-off read from the data, not from the text of the source: active = GI50 up to about 1.1 µM and inactive = higher.
Possible outcomes: active, inactive

MOLECULE	LABEL
CCOC(=O)N1CCC2C(=C(C)C(C)C3=C2C(=O)c2ccccc2C3=O)C1 (stereo not drawn)	inactive
Clc1ccc(N/N=C(\c2ccccc2)c2ccccn2)nc1	active
CC(C)CC(N)C(=O)NC(C(=O)NC(CCCNC(=N)N)C(=O)NC(CS)C(=O)NC1CSCC(C(=O)NC(Cc2ccccc2)C(=O)NC(C(=O)NC(CCCNC(=N)N)C(=O)O)C(C)C)NC(=O)C2CCCN2C(=O)C(CCCCN)NC(=O)C2CCCN2C(=O)C2CCCN2C(=O)C(Cc2ccc(O)cc2)NC(=O)C(CO)NC(=O)C(CCCCN)NC(=O)C(C(C)O)NC(=O)C(Cc2c[nH]c3ccccc23)NC1=O)C(C)C (stereo not drawn)	inactive
Cc1[nH]n(-c2nc3c(c(=O)[nH]2)CCC3)c(=O)c1CCO	inactive
CCOP(=O)(OCC)/C(C#N)=C(\C)c1ccco1	inactive
S=C1NC2=C(COc3ccccc32)C(c2ccc(Cl)cc2)N1 (stereo not drawn)	inactive
CCn1cc(C(=O)O)c(=O)c2cc3c(cc21)S(=O)(=O)CC3	inactive
CC1(C)/C(=N\NC(N)=O)C2CCC1C2 (stereo not drawn)	inactive
